Value source: ChEMBL document CHEMBL1157355

System: Blood
Experiment: Inhibition of TNFalpha release in human whole blood
Type: functional, tissue-based
Settings: read-out: IC50
pIC50: −log10 of the molar value.
QUANTITY NAME: pIC50

Example entries and their recorded answers appear below.
[[record]]
compound = "COc1ccc(C(CC(N)=O)N2C(=O)c3ccccc3C2=O)cc1OC1CCCC1 (configuration not stated)"
experimental_target = "Blood"
quantity_name = "pIC50"
readout_number = 5.60

[[record]]
compound = "COc1cccc(-c2cc(Cc3ccncc3)cc3cccnc23)c1"
experimental_target = "Blood"
quantity_name = "pIC50"
readout_number = 5.08

[[record]]
compound = "O=S(=O)(Nc1cccc(-c2cc(Cc3ccncc3)cc3cccnc23)c1)c1ccccc1"
experimental_target = "Blood"
quantity_name = "pIC50"
readout_number = 5.11

[[record]]
compound = "Oc1ccc2c(Cc3c(Cl)cncc3Cl)nnc(-c3ccccc3)c2c1"
experimental_target = "Blood"
quantity_name = "pIC50"
readout_number = 7.34


A: O=C1CCC(N2C(=O)c3ccccc3C2=O)C(=O)N1 (configuration not stated) [THALIDOMIDE]
B: COc1ccc([C@]2(C#N)CC[C@@H](C(=O)O)CC2)cc1OC1CCCC1
C: COc1ccc2c(Cc3c(Cl)cncc3Cl)nnc(-n3cncn3)c2c1
Rank by pIC50 (largest to smallest). Provide your answer as the labels ordered per the instruction.
C, B, A
(C: 7.14, B: 6.08, A: 3.70)

###

Test: Toxicity in rat stomach assessed as reduction in ability to increase acid secretion
Assay type: tissue-based
QUANTITY NAME: pIC50
As a rule, pIC50 stands for the negative log10 of the concentration, concentration in M.

Need pIC50, item COc1ccc2c(Cc3c(Cl)cncc3Cl)nncc2c1OC1CCCC1
5.15

###

Test: Cmax in ferret
Format: ADME, organism-based, Mustela putorius furo
Details: in vivo
QUANTITY NAME: Cmax (nM)

1: O=S(=O)(Nc1cccc(-c2cc(Cc3ccncc3)cc3cccnc23)c1)c1ccccc1
2: COc1cccc(-c2cc(Cc3ccncc3)cc3cccnc23)c1
Consider entries 1 and 2 . Which has the numerically lower Cmax? Indicate your choice by writing its label.
2
(2: 200 nM, 1: 2000 nM)

###

Assay: Oral bioavailability in guinea pig
Assay type: ADME, organism-based, Cavia porcellus
Conditions: in vivo
QUANTITY NAME: bioavailability (%)
Field format: number, assumed %, no unit text.

Need bioavailability, item COc1ccc(C(=O)Nc2c(Cl)cncc2Cl)c2ccc(C(F)(F)F)nc12
78

###

Test: Half life in squirrel monkey
Type: ADME, organism-based, Saimiri sciureus
Conditions: in vivo
QUANTITY NAME: half-life (h)
Field format: number, assumed h, no unit text.

Need half-life, item Cc1c[n+]([O-])ccc1CC(c1ccc(C(O)(C(F)(F)F)C(F)(F)F)cc1)c1ccc(OC(F)F)c(OC(F)F)c1 (configuration not stated)
36

###

Experiment: Displacement of [3H]rolipram from PDE4 by RBA
pKi: −log10 of the molar value.
QUANTITY NAME: pKi

Example entries and their recorded answers appear below.
[[record]]
molecule = "COc1ccc2c(Cc3c(Cl)cncc3Cl)nncc2c1OC1CCCC1"
quantity_name = "pKi"
readout_number = 6.83

[[record]]
molecule = "COCc1nc2c(OC)ccc(C(=O)Nc3c(Cl)cncc3Cl)c2[nH]1"
quantity_name = "pKi"
readout_number = 7.60

[[record]]
molecule = "Oc1ccc2c(Cc3c(Cl)cncc3Cl)nnc(-c3ccccc3)c2c1"
quantity_name = "pKi"
readout_number = 6.57


a: COc1ccc(C2(Cc3ccncc3)C(=O)N(C(=O)OC(C)(C)C)c3ccccc32)cc1OC1CCCC1 (configuration not stated)
b: COc1ccc2c(Cc3c(Cl)cncc3Cl)nnc(-n3cncn3)c2c1
c: Cc1ccccc1-n1c(=O)n(Cc2cccs2)c(=O)c2[nH]cnc21
d: COc1ccc([C@H](Cc2ccncc2)c2ccccc2)cc1OC1CCCC1
Provide the items ranked by increasing pKi. Provide your answer as the labels ordered per the instruction.
a, c, b, d
(a: 5.55, c: 5.99, b: 6.42, d: 7.80)

###

Target: 3',5'-cyclic-AMP phosphodiesterase 4C (Homo sapiens)
Sequence (Q08493 whole entry): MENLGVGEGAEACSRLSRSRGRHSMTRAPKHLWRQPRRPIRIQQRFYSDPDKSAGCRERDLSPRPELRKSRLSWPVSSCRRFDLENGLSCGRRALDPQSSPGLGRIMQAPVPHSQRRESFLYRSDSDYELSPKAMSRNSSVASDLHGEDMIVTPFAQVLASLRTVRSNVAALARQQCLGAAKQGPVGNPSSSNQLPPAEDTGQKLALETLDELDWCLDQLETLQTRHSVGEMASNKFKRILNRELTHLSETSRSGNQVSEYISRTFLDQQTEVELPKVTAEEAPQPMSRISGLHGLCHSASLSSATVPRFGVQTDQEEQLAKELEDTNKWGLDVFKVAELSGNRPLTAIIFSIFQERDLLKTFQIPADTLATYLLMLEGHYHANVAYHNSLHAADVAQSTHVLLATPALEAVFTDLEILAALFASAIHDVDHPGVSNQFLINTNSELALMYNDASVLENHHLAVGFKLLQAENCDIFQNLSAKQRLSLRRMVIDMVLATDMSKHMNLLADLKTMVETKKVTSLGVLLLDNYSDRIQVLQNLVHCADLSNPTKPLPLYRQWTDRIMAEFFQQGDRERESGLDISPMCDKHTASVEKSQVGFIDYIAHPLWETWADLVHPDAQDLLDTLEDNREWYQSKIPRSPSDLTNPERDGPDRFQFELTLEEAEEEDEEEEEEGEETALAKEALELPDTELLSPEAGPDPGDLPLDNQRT
QUANTITY NAME: pIC50
As a rule, pIC50 stands for the negative log10 of the concentration, concentration in M.

Quick check: pIC50 on 3',5'-cyclic-AMP phosphodiesterase 4C (Homo sapiens), item CC(C)C(=O)c1c(C(C)C)nn2ccccc12 [IBUDILAST] ?
6.62

###

Biological target: 3',5'-cyclic-AMP phosphodiesterase 4A (Homo sapiens, UniProt P27815)
Sequence (P27815 whole entry): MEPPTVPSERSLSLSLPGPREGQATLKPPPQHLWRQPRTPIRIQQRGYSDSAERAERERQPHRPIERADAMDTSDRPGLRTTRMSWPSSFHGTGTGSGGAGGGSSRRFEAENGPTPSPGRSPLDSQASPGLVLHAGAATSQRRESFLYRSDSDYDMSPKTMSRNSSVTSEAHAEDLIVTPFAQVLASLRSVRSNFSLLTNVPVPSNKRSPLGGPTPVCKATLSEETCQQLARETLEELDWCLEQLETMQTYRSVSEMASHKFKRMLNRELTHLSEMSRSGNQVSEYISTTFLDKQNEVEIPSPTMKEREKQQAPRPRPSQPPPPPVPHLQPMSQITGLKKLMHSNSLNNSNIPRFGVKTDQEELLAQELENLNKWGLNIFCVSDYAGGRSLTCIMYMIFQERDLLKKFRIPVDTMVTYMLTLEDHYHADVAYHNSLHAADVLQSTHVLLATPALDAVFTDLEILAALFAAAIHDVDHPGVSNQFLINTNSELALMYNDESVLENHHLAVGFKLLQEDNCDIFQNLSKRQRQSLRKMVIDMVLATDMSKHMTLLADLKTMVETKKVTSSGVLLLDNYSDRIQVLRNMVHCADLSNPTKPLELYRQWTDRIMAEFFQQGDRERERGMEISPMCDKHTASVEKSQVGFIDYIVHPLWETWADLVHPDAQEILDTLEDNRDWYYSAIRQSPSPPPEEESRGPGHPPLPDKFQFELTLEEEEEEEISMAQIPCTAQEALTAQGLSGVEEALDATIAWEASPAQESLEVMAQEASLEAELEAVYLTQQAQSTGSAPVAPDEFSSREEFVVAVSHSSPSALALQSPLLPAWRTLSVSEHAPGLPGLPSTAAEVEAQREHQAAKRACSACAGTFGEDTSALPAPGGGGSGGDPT
Experiment: Inhibition of GST-tagged PDE4A
pIC50: −log10 of the molar value.
QUANTITY NAME: pIC50

P: COc1ccc([C@H](Cc2ccncc2)c2ccccc2)cc1OC1CCCC1
Q: CC(C)(Nc1ccc(C(Cc2cc[n+]([O-])cc2)c2ccc(OC(F)F)c(OC(F)F)c2)cc1)c1ccccc1 (configuration not stated)
Lab note: check whether P or Q shows the higher recorded pIC50. Indicate your choice by writing its label.
Q
